tested on: human ether-à-go-go-related gene (hERG) potassium channel (human);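 also: peak tail current of the secondary pulse compared with the same well before compound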
Sequence (Q12809 whole entry, looked up): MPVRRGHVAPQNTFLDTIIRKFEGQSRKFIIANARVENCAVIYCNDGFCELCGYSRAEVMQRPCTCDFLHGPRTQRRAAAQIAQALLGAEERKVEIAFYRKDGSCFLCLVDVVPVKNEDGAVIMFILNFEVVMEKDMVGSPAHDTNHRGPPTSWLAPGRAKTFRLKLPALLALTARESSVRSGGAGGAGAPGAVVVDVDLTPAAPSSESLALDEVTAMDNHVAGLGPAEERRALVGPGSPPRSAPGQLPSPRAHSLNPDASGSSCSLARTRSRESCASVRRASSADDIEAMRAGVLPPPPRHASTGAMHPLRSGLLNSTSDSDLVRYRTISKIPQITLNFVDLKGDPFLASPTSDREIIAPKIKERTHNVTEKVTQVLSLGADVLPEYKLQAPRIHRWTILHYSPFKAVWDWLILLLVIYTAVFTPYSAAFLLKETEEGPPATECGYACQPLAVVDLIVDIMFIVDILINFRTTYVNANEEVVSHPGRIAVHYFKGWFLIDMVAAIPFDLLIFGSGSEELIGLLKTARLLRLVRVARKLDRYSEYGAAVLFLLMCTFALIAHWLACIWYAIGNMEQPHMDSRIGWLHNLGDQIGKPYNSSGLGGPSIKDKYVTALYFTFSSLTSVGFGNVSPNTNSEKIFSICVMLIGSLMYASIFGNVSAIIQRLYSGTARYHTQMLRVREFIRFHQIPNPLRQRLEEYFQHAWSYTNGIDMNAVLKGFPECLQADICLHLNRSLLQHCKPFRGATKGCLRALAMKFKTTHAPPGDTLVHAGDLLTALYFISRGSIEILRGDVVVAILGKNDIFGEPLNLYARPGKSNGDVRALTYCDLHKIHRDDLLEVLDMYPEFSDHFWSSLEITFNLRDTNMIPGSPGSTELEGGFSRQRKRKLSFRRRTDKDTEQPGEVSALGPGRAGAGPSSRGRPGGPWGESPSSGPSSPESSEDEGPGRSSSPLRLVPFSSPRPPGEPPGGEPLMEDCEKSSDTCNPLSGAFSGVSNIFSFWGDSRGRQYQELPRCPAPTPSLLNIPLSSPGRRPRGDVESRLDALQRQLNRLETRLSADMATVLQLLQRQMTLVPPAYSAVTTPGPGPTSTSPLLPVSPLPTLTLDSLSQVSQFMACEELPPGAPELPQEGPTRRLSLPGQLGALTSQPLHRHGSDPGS
experiment description: primary screen, population patch clamp on CHO cells stably expressing hERG; higher = less effect of the substance
Protocol: Briefly, Chinese hamster ovary (CHO) cells stably expressing the hERG channel were dislodged from tissue culture flasks and dispensed into PPC plates. […] During the recording, background leak currents were estimated by a 100 ms step to -80 mV from an initial holding potential of -70 mV and subtracted from the subsequent current measurement. The campaign was conducted in two phases using slight differences in recording protocol. […]
About 14,000 (4.5%) of roughly 310,000 compounds showed an effect of 50% or more. The effect is printed as a negative number. This excerpt belongs to a sample that is enriched for strong results.
Binary call on hERG current change (%, negative = inhibition) at 10uM: TRUE from -10% upward, FALSE beneath that.

compound: COC(=O)c1sc(SC)c2c1CC(C)(C)C/C2=N/O
group: TRUE

compound: O=C(O)C(=O)O.O=C(c1ccc(F)cc1)N1CCN(C2CCC(c3ccccc3)CC2)CC1 (stereo not drawn)
group: FALSE

compound: O=C(c1ccc(F)cc1)N1CCC(c2ccccc2)C1 (stereo not drawn)
group: TRUE

compound: O=C(O)C(=O)O.O=C(c1ccncc1)N1CCN(C2CCC(c3ccccc3)CC2)CC1 (stereo not drawn)
group: FALSE

compound: O=C(O)C(=O)O.O=C(c1ccccc1F)N1CCN(C2CCC(c3ccccc3)CC2)CC1 (stereo not drawn)
group: FALSE

compound: c1ccc(-c2nnc3ccc(N4CCC5(CC4)OCCO5)nn23)cc1
group: FALSE

compound: O=C(O)C(=O)O.O=C(c1ccncc1)N1CCN(C2CCCCC2)CC1
group: FALSE

compound: O=C(c1ccncc1)N1CCN(C(=O)c2ccncc2)CC1
group: TRUE
